- TARGET SYSTEM: T1, hPRLR.mFc (soluble dimeric human PRLR) (Homo sapiens, UniProt P16471)
- T1 construct: dimeric (hPRLR.mFc)
- T1 sequence (P16471 with tags, fused parts or gaps): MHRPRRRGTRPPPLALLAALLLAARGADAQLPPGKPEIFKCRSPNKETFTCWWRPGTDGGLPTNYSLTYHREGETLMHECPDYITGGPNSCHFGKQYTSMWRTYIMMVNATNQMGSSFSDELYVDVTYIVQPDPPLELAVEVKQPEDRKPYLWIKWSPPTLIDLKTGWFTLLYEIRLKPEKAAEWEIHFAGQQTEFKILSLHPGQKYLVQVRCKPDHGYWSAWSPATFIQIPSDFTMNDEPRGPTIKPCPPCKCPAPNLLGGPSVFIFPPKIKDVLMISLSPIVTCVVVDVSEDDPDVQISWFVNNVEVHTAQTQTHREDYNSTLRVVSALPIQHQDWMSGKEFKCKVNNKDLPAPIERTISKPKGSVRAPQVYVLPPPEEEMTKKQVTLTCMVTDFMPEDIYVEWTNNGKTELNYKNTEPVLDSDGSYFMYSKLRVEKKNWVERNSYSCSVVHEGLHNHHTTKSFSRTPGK
- ASSAY SUMMARY: Surface plasmon resonance (Biacore T200), mAb-capture format
- Assay type: binding
- CONDITION PARAMETERS: 37° C., antibody-capture format, analyte hPRLR.mFc
# Kd per entry

MOLECULE: H1H6790P: anti-PRLR antibody, human IgG1 Fc; HCVR/LCVR SEQ ID NOs 114/122 (antibody, V domains shown, human IgG1 Fc) VH: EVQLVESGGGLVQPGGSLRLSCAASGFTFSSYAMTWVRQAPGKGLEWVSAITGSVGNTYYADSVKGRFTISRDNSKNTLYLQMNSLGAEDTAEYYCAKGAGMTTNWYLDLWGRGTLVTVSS VL: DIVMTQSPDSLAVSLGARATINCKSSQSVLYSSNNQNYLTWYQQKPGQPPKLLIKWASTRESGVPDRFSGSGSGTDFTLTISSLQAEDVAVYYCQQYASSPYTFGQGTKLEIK
Kd: 0.306 nM

MOLECULE: H1H6792P: anti-PRLR antibody, human IgG1 Fc; HCVR/LCVR SEQ ID NOs 130/138 (antibody, V domains shown, human IgG1 Fc) VH: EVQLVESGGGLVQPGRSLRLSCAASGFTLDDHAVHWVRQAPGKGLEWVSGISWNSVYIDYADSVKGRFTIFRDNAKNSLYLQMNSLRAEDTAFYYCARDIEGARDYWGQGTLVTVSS VL: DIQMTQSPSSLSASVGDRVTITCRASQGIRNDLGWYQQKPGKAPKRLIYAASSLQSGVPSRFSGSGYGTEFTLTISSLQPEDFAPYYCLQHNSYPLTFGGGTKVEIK
Kd: 0.352 nM

MOLECULE: H1H6795P: anti-PRLR antibody, human IgG1 Fc; HCVR/LCVR SEQ ID NOs 162/170 (antibody, V domains shown, human IgG1 Fc) VH: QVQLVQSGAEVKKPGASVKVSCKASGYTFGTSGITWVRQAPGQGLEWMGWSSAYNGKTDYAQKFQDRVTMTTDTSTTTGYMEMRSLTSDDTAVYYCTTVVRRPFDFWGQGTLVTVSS VL: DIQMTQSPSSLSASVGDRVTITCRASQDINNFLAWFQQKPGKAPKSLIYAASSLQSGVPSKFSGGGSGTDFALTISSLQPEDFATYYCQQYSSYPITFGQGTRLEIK
Kd: 0.0402 nM

Note: attention shifts to another entry.
Kd reading for H1H6774P: anti-PRLR antibody, human IgG1 Fc; HCVR/LCVR SEQ ID NOs 34/42 (antibody, V domains shown, human IgG1 Fc) VH: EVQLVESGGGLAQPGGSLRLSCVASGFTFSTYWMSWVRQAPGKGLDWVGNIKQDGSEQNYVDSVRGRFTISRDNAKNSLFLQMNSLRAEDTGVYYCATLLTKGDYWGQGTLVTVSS VL: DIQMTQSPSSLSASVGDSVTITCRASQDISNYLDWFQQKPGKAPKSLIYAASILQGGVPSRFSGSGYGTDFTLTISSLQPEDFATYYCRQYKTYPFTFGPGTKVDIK : 0.138 nM
